Data origin: PubChem BioAssay (NCI)

Tested on: SNB-19 CNS
test: NCI tumour cell line growth inhibition, 48 h
observable: TGI (µM)
Write the value in µM as a bare number.

## Input For the compound shown here, CCC(C)/C=C(C)/C=C/C(=O)c1c(O)c(-c2ccc(O)cc2)c[nH]c1=O (centres undefined) , give the reported TGI.
## Output 19.8

## Input Item under review: CN1CCN(Cc2ccc(NC(=O)c3[nH]ncc3Nc3ncnc4c3CCC4)cc2)CC1 . Reported TGI?
## Output 14.8

## Input For COC(=O)c1ccc(NCC2=CC(=O)c3ccccc3C2=O)cc1 , what is its reported TGI?
## Output 99.7

# ---- query compound ----
## Input Query (compound): C=C1C(=O)O[C@@H]2C[C@@H](C)[C@@H]3[C@@H](OC4OC(COC(C)=O)C(O)C(O)C4O)CC(=O)[C@@]3(C)C[C@H]12 (some centres undefined) ; field requested: TGI
## Output 45.1
